Target: T1, Human CD3eg linker (human)
T1 construct: Single chain: epsilon and gamma subunits of human CD3 joined by a 29-mer linker, Flag-tag at the C-terminus; also called recombinant human CD3
T1 chain: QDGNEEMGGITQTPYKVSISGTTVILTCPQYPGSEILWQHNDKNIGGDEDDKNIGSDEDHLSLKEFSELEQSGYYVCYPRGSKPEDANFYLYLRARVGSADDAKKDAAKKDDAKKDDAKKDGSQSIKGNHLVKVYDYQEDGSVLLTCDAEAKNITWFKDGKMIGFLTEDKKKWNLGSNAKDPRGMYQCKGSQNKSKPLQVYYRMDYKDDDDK
Assay: Biacore SPR, vs template H183/L072
Attribute Measured: fold change of affinity (fold)
// note: answer is a bare numeric in fold

Examples with answers:
H183/L072 VH Y59R (antibody, name in Kabat numbering, V domains shown) VH: QVQLVESGGGLVQPGRSLRLSCAASGFTFSNAWMHWVRQAPGKGLEWVAQIKDKGNAYAAYRAPSVKGRFTISRDDSKNSIYLQMNSLKTEDTAVYYCHYVHYASASTVLPAFGVDAWGQGTTVTVSS VL: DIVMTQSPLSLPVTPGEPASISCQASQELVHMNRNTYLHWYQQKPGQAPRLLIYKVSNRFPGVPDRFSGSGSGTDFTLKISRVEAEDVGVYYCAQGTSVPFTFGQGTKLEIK
1.3
H183/L072 VH F29N (antibody, name in Kabat numbering, V domains shown) VH: QVQLVESGGGLVQPGRSLRLSCAASGFTNSNAWMHWVRQAPGKGLEWVAQIKDKGNAYAAYYAPSVKGRFTISRDDSKNSIYLQMNSLKTEDTAVYYCHYVHYASASTVLPAFGVDAWGQGTTVTVSS VL: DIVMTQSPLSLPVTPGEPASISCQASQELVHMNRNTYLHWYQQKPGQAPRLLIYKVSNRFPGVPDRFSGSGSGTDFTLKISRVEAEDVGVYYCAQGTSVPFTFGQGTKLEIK
0
H183/L072 VH A60D (antibody, name in Kabat numbering, V domains shown) VH: QVQLVESGGGLVQPGRSLRLSCAASGFTFSNAWMHWVRQAPGKGLEWVAQIKDKGNAYAAYYDPSVKGRFTISRDDSKNSIYLQMNSLKTEDTAVYYCHYVHYASASTVLPAFGVDAWGQGTTVTVSS VL: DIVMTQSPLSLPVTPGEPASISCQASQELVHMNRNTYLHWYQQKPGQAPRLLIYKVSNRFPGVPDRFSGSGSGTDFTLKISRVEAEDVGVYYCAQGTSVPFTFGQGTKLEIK
1.3
H183/L072 VH W33A (antibody, name in Kabat numbering, V domains shown) VH: QVQLVESGGGLVQPGRSLRLSCAASGFTFSNAAMHWVRQAPGKGLEWVAQIKDKGNAYAAYYAPSVKGRFTISRDDSKNSIYLQMNSLKTEDTAVYYCHYVHYASASTVLPAFGVDAWGQGTTVTVSS VL: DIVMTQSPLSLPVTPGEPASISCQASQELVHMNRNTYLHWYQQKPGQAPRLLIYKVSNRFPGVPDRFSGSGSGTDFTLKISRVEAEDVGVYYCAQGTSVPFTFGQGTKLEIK
0

Bench note: what fold change of affinity did H183/L072 VH A54S (antibody, name in Kabat numbering, V domains shown) VH: QVQLVESGGGLVQPGRSLRLSCAASGFTFSNAWMHWVRQAPGKGLEWVAQIKDKGNSYAAYYAPSVKGRFTISRDDSKNSIYLQMNSLKTEDTAVYYCHYVHYASASTVLPAFGVDAWGQGTTVTVSS VL: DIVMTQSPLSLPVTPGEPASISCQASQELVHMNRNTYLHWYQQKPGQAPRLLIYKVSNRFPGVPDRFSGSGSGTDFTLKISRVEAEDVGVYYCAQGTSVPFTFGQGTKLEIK show?
1
